Data credit: patent US20240108702A1

assay: in vivo; conditions: both, Sprague-Dawley, rat, iv, 10 mg/kg
Where a SMILES comes first, the peptide text is derived from it. Bridges are numbered along the chain shown (N, C = ends).
quantity: MRT (h)
Give the value, in units of h, as a plain number.

Q: Please supply the value of reported MRT for the item CC[C@H](C)[C@@H]1NC(=O)[C@@H]2CSSC[C@H](NC(=O)[C@H](CCCNC(=N)N)NC(=O)[C@@H]3CSSC[C@H](NC1=O)C(=O)N[C@@H]([C@@H](C)O)C(=O)N[C@@H](CCCNC(=N)N)C(=O)NCC(=O)N[C@@H](Cc1ccccc1)C(=O)N3)C(=O)N[C@@H](CC(C)C)C(=O)N[C@H]1CSSC[C@H](NC(=O)[C@H](C(C)C)NC(=O)CNC(=O)[C@H](CCCNC(=N)N)NC(=O)[C@H](CCCNC(=N)N)NC1=O)C(=O)N[C@@H](CCCNC(=N)N)C(=O)N2 [Peptide 1] (cyclo(GFCRCLCRRGVCRCICTR); disulfide 3-16, 5-14, 7-12)
A: 2.88

* * *

test: in vivo; settings: both, Sprague-Dawley, rat, iv, 10 mg/kg
Where a SMILES comes first, the peptide text is derived from it. Bridges are numbered along the chain shown (N, C = ends).
quantity: AUC
Please answer using the number first and the unit second.

Q: Please supply the value of reported AUC for the item CC[C@H](C)[C@@H]1NC(=O)[C@@H]2CSSC[C@H](NC(=O)[C@H](CCCNC(=N)N)NC(=O)[C@@H]3CSSC[C@H](NC1=O)C(=O)N[C@@H]([C@@H](C)O)C(=O)N[C@@H](CCCNC(=N)N)C(=O)NCC(=O)N[C@@H](Cc1ccccc1)C(=O)N3)C(=O)N[C@@H](CC(C)C)C(=O)N[C@H]1CSSC[C@H](NC(=O)[C@H](C(C)C)NC(=O)CNC(=O)[C@H](CCCNC(=N)N)NC(=O)[C@H](CCCNC(=N)N)NC1=O)C(=O)N[C@@H](CCCNC(=N)N)C(=O)N2 [Peptide 1] (cyclo(GFCRCLCRRGVCRCICTR); disulfide 3-16, 5-14, 7-12)
A: 41700 ng·h/mL

* * *

assay: in vivo; conditions: both, cynomolgus monkey, iv, 5 mg/kg/day, AUC0-∞, cynomolgus, 5 mg/kg/day i.v., Day 10, mean
Where a SMILES comes first, the peptide text is derived from it. Bridges are numbered along the chain shown (N, C = ends).
quantity: AUC(0-inf)
Please answer using the number first and the unit second.

Q: Please supply the value of reported AUC(0-inf) for the item CC[C@H](C)[C@@H]1NC(=O)[C@@H]2CSSC[C@H](NC(=O)[C@H](CCCNC(=N)N)NC(=O)[C@@H]3CSSC[C@H](NC1=O)C(=O)N[C@@H]([C@@H](C)O)C(=O)N[C@@H](CCCNC(=N)N)C(=O)NCC(=O)N[C@@H](Cc1ccccc1)C(=O)N3)C(=O)N[C@@H](CC(C)C)C(=O)N[C@H]1CSSC[C@H](NC(=O)[C@H](C(C)C)NC(=O)CNC(=O)[C@H](CCCNC(=N)N)NC(=O)[C@H](CCCNC(=N)N)NC1=O)C(=O)N[C@@H](CCCNC(=N)N)C(=O)N2 [Peptide 1] (cyclo(GFCRCLCRRGVCRCICTR); disulfide 3-16, 5-14, 7-12)
A: 40000 ng·h/mL
